assay: NCI Yeast Anticancer Drug Screen. Data for the mec2-1 strain (AID 157); details: S. cerevisiae mec2-1 strain, at 50.0 µM, stronger effect = higher value
Compounds without any hit were thinned out: in the full panel of roughly 79,000, 15% have a hit.
recorded metric: growth inhibition (%)

>>> reading("CCOC(=O)/C(=C\\c1ccc([N+](=O)[O-])cc1)C(C)=O")
94.7
>>> reading("S=C1C(=Nc2ccccc2)N(c2ccccc2)/C(=N\\c2cccc[n+]2Cc2ccccc2)N1c1ccccc1")
97.9
>>> reading("O=C(CCCN1CCC(C(O)c2ccc(F)cc2)CC1)c1ccc(F)cc1 (stereo unspecified)")
69.5
>>> reading("O=C(CCCSCCCC(=O)NNc1ccccc1)NNc1ccccc1")
40.7
>>> reading("O=C(NNc1ccccc1)c1cccc([N+](=O)[O-])c1")
98.5
>>> reading("COc1ccc(/C=C2/C(=O)N(C(=O)c3ccccc3O)N=C2C)cc1OC")
52.9
>>> reading("O=C(O)/C=C/C(=O)NNc1nc2ccccc2s1")
-5.25
>>> reading("Nc1ccc(Cl)c2c1C(=O)c1ccccc1C2=O")
56.8
>>> reading("O=C1CSC(c2ccccc2O)N1c1ccc(-n2c(-c3ccccc3)nc3ccccc3c2=O)cc1 (stereo unspecified)")
64.4
>>> reading("COc1ccc2cc(Br)ccc2c1")
5.1
>>> reading("C[n+]1c(-c2ccc(/C=N\\NC(=O)c3cccc(C(=O)N/N=C/c4ccc(-c5cn6ccccc6[n+]5C)cc4)c3)cc2)cn2ccccc21")
98.5
